system: HepG2-GM130-SQSTM1; assay: phenotypically active (imaging signature differs from DMSO and reproducible) at any of 0.3-9 uM (binary (1 = active, 0 = inactive)); higher = active; conditions: treatment time: 24 h
Structures can show the parent of a compound that is named as a salt.
Record form. Attribute: phenotypically active. Fill in for each entry.
One number for each entry.

Q: Value lookup for phenotypically active; key = CO[C@H]1C[C@@H]2CC[C@@H](C)[C@@](O)(O2)C(=O)C(=O)N2CCCC[C@H]2C(=O)O[C@H]([C@H](C)C[C@@H]2CC[C@@H](OC(=O)C(C)(CO)CO)[C@H](OC)C2)CC(=O)[C@H](C)C=C(C)[C@@H](O)[C@@H](OC)C(=O)[C@H](C)C[C@H](C)C=CC=CC=C1C [Temsirolimus]
A: 1

Q: Next record, please: NC(=O)c1cn(Cc2c(F)cccc2F)nn1 [rufinamide]
A: 0

Proceeding to the next molecule to report its phenotypically active.
Q: Value lookup for phenotypically active; key = Nc1nc(N)nc(-c2cc(Cl)ccc2Cl)n1 [Irsogladine maleate]
A: 0

###

tested on: WPMY1-TP53BP1-CLTA; test: phenotypically active (imaging signature differs from DMSO and reproducible) at any of 0.3-9 uM (binary (1 = active, 0 = inactive)); higher = active; conditions: treatment time: 24 h
Where a name gives a salt, the structure may show the parent alone.
Output constraint: value belongs to 1 (yes) for active, 0 (no) for inactive

Some entries whose results are on file:
Q: Name the outcome recorded for O=C(/C=C\c1ccc(O)c(O)c1)O[C@H]1C[C@](OC(=O)/C=C/c2ccc(O)c(O)c2)(C(=O)O)C[C@H](O)[C@H]1O [Cynarin] in the assay.
A: 0 (no)

Q: Next record, please: CCCCC1=NC2(CCCC2)C(=O)N1Cc1ccc(-c2ccccc2-c2nnn[nH]2)cc1 [irbesartan]
A: 0 (no)

Q: Next record, please: O=C(Nc1cccc(Cl)c1)Nc1ncc(CCNc2ncnc3ccsc23)s1 [SNS 314 mesylate]
A: 1 (yes)

New cases:
Q: Name the outcome recorded for O=C1NCCCc2c1oc1ccc(O)cc21 in the assay.
A: 0 (no)

Q: Next record, please: O=C(CCCCSc1nc(-c2ccc(-c3ccccc3)cc2)cc(=O)[nH]1)NO
A: 1 (yes)

Q: Next record, please: Nc1cc(C(F)(F)F)c(-c2cc(N3CCOCC3)nc(N3CCOCC3)n2)cn1 [buparlisib]
A: 1 (yes)

Q: Next record, please: CCOC(=O)[C@H](CCc1ccccc1)N[C@H]1CCc2ccccc2N(CC(=O)O)C1=O [benazepril]
A: 0 (no)

Q: Next record, please: COC(=O)C1=CO[C@@H](C)[C@H]2CN3CCc4c([nH]c5ccccc45)[C@@H]3C[C@H]12 [Ajmalicine hydrochloride]
A: 0 (no)

###

system: HepG2-TP53BP1-CLTA; assay: phenotypically active (imaging signature differs from DMSO and reproducible) at any of 0.3-9 uM (binary (1 = active, 0 = inactive)); higher = active; conditions: treatment time: 24 h
Counter-ions that a name gives are not always drawn.
Output constraint: value belongs to active, inactive

Q: Name the outcome recorded for O=C(O)c1c(Sc2ccccc2)c2cc(Cl)ccc2n1Cc1ccc(Cl)cc1 in the assay.
A: inactive

New cases:
Q: Name the outcome recorded for COC(=O)[C@H]1[C@H]2C[C@H]3c4[nH]c5ccccc5c4CCN3C[C@H]2CC[C@@H]1O [Rauwolscine hydrochloride] in the assay.
A: inactive

Q: Next record, please: O=S(=O)(NCCCCCCc1ccccc1)c1cccc2c(Cl)cccc12
A: inactive

Q: Next record, please: CN(C)CCOC(=O)C(c1ccccc1)C1(O)CCCC1 (centres undefined) [cyclopentolate]
A: inactive
